Molecular target: CDK2/Cyclin E1 (Homo sapiens (Human), UniProt P24941)
Assay: CDK2/Cyclin E1 full length mobility shift assay
Mark satisfied only when Ki stays strictly below 0.3 nM. Values equal to the cut-off are not satisfied.

Molecule	Label
CC[C@H](C)NC(=O)O[C@@H]1CC[C@H](c2cc(NC(=O)c3cc(COC)nn3C)n[nH]2)C1 [Example 14]	satisfied
Cc1ncc(CC(=O)Nc2cc([C@@H]3CC[C@H](OC(=O)N[C@@H]4CCOC[C@H]4C)C3)[nH]n2)s1 (single isomer, unassigned; isomer b) [Example 511]	not satisfied

Bench note: check whether Cc1ncc(CC(=O)Nc2cc([C@H]3CC[C@@H](OC(=O)NC(C)C)C3)[nH]n2)s1 [Example 2] shows Ki below 0.3 nM
not satisfied

// next record COc1ccc(CC(=O)Nc2cc([C@@H]3CC[C@H](OC(=O)N4CCC4(C)C)C3)[nH]n2)cn1 [Example 145]
satisfied

Subsequent entry: Cc1ncc(CC(=O)Nc2cc([C@@H]3CC[C@H](OC(=O)N[C@@H]4CCOC[C@H]4C)C3)[nH]n2)s1 (single isomer, unassigned; isomer a) [Example 510]
satisfied

* * *

Ki values, listed per item
Target: GSK3β (Homo sapiens)
Assay: biochemical
Settings: GSK3β Ki (nM)
API: value field is a number in nM; no unit string.

Compound	Experimental System	Ki [nM]
Cc1ncc(CC(=O)Nc2cc([C@@H]3CC[C@H](OC(=O)N[C@@H]4CCOC[C@H]4C)C3)[nH]n2)s1 (single isomer, unassigned; isomer b) [Example 511]	GSK3β (Homo sapiens)	4.74

Here is another compound to look at.
Param readout= Ki; system= GSK3β (Homo sapiens); entry= Cc1ncc(CC(=O)Nc2cc([C@@H]3CC[C@H](OC(=O)N[C@@H]4CCOC[C@H]4C)C3)[nH]n2)s1 (single isomer, unassigned; isomer a) [Example 510] ; returns value.
14

This collection of values is drawn from patent US11718603B2.
